test system: HOP-62 complex spheroids with HUVEC/MSC, viability; test: Anticancer human tumor HOP-62 cell line growth inhibition [RAS]; conditions: curve of first compound; second compound 0.000949 µM;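 note: spheroids exposed to agents for seven days before readout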
measure: IC50

Would you please look over these solved cases?
CC1(C)CCC(Nc2ncc(C(F)(F)F)c(-c3c[nH]c4c(P(C)(C)=O)c(C#N)ccc34)n2)CN1 (stereo not drawn) + CCn1c(-c2cc(N3CCN(C)CC3)cnc2C(C)OC)c2c3cc(ccc31)-c1csc(n1)CC(NC(=O)C1CC1C)C(=O)N1CCCC(N1)C(=O)OCC(C)(C)C2 ... > 300 nM
C=CC(=O)N1CCN(c2nc(OCC3CCCN3C)nc3c(F)c(-c4nc(N)cc(C)c4C(F)(F)F)c(Cl)cc23)C(C)C1 (stereo not drawn) + CCn1c(-c2cccnc2C(C)OC)c2c3cc(ccc31)N1CCOC(CC(NC(=O)C(C(C)C)N(C)C(=O)C3(F)CCN(C(=O)C#CC(C)(C)N(C)C)CC3)C(=O)N3CCCC(N3)C(=O)OCC(C)(C)C2)C1 ... > 1000 nM
CCN1CCN(Cc2ccc(Nc3ncc(F)c(-c4cc(F)c5nc(C)n(C(C)C)c5c4)n3)nc2)CC1 + CCn1c(-c2cccnc2C(C)OC)c2c3cc(ccc31)N1CCOC(CC(NC(=O)C(C(C)C)N(C)C(=O)C3(F)CCN(C(=O)C#CC(C)(C)N(C)C)CC3)C(=O)N3CCCC(N3)C(=O)OCC(C)(C)C2)C1 ... > 1000 nM

# context switch: different compound, same IC50
Q: Provide measured IC50 on HOP-62 complex spheroids with HUVEC/MSC, viability for CC(Nc1ccc2c(c1)OCCn1cc(N3C(=O)OCC3C(F)F)nc1-2)C(N)=O (stereo not drawn) + CCn1c(-c2cccnc2C(C)OC)c2c3cc(ccc31)N1CCOC(CC(NC(=O)C(C(C)C)N(C)C(=O)C3(F)CCN(C(=O)C#CC(C)(C)N(C)C)CC3)C(=O)N3CCCC(N3)C(=O)OCC(C)(C)C2)C1 please.
Ans: 659 nM

---

system: HOP-62 complex spheroids with HUVEC/MSC, viability; test: Anticancer human tumor HOP-62 cell line growth inhibition [RAS]; details: curve of first compound; second compound 0.000949 µM;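 note: spheroids exposed to agents for seven days before readout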
measure: IC50 (µM)
Quick reminder: number only, in µM, skip the unit.

Q: Identify the reported IC50 for the following entry. CC(C)NCC(C(=O)N1CCN(c2ncnc3c2C(C)CC3O)CC1)c1ccc(Cl)cc1 (stereo not drawn) + CCn1c(-c2cccnc2C(C)OC)c2c3cc(ccc31)N1CCOC(CC(NC(=O)C(C(C)C)N(C)C(=O)C3(F)CCN(C(=O)C#CC(C)(C)N(C)C)CC3)C(=O)N3CCCC(N3)C(=O)OCC(C)(C)C2)C1
Ans: 3.57

Q: Identify the reported IC50 for the following entry. CCc1c2c(nc3ccc(O)cc13)-c1cc3c(c(=O)n1C2)COC(=O)[C@]3(O)CC + CCn1c(-c2cc(N3CCN(C)CC3)cnc2C(C)OC)c2c3cc(ccc31)-c1csc(n1)CC(NC(=O)C1CC1C)C(=O)N1CCCC(N1)C(=O)OCC(C)(C)C2
Ans: 0.00177

Q: Identify the reported IC50 for the following entry. CC1(O)CCCC1n1c(=O)c(C(F)F)cc2cnc(NC3CCN(S(C)(=O)=O)CC3)nc21 (stereo not drawn) + CCn1c(-c2cccnc2C(C)OC)c2c3cc(ccc31)N1CCOC(CC(NC(=O)C(C(C)C)N(C)C(=O)C3(F)CCN(C(=O)C#CC(C)(C)N(C)C)CC3)C(=O)N3CCCC(N3)C(=O)OCC(C)(C)C2)C1
Ans: 4.84

---

This section presents compounds with their documented viability, T/C values.
test system: HOP-62 complex spheroids with HUVEC/MSC, viability; test: Anticancer human tumor HOP-62 cell line growth inhibition [RAS]; conditions: second compound 0.003 µM; first compound 0.01 µM; stronger effect = lower value;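 note: spheroids exposed to agents for seven days before readout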;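 for viability, T/C: 100% = DMSO vehicle control viability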
Quick reminder: number only, in %, skip the unit.

Would you please look over these solved cases?
C=CC(=O)Nc1cc(Nc2nccc(-c3cn(C)c4ccccc34)n2)c(OC)cc1N(C)CCN(C)C + CCn1c(-c2cc(N3CCN(C)CC3)cnc2C(C)OC)c2c3cc(ccc31)-c1csc(n1)CC(NC(=O)C1CC1C)C(=O)N1CCCC(N1)C(=O)OCC(C)(C)C2 ... 88.6
CC(C)n1nc(-c2ccc3oc(N)nc3c2)c2c(N)ncnc21 + CCn1c(-c2cccnc2C(C)OC)c2c3cc(ccc31)N1CCOC(CC(NC(=O)C(C(C)C)N(C)C(=O)C3(F)CCN(C(=O)C#CC(C)(C)N(C)C)CC3)C(=O)N3CCCC(N3)C(=O)OCC(C)(C)C2)C1 ... 56.3
CCN1CCN(Cc2ccc(Nc3ncc(F)c(-c4cc(F)c5nc(C)n(C(C)C)c5c4)n3)nc2)CC1 + CCn1c(-c2cccnc2C(C)OC)c2c3cc(ccc31)N1CCOC(CC(NC(=O)C(C(C)C)N(C)C(=O)C3(F)CCN(C(=O)C#CC(C)(C)N(C)C)CC3)C(=O)N3CCCC(N3)C(=O)OCC(C)(C)C2)C1 ... 99.7
C=CC(=O)Nc1cc(Nc2nccc(-c3cn(C)c4ccccc34)n2)c(OC)cc1N(C)CCN(C)C + CCn1c(-c2cccnc2C(C)OC)c2c3cc(ccc31)N1CCOC(CC(NC(=O)C(C(C)C)N(C)C(=O)C3(F)CCN(C(=O)C#CC(C)(C)N(C)C)CC3)C(=O)N3CCCC(N3)C(=O)OCC(C)(C)C2)C1 ... 95.4

# context switch: different compound, same viability, T/C
Q: Provide measured viability, T/C on HOP-62 complex spheroids with HUVEC/MSC, viability for CC(C)n1nc(-c2ccc3oc(N)nc3c2)c2c(N)ncnc21 + CCn1c(-c2cc(N3CCN(C)CC3)cnc2C(C)OC)c2c3cc(ccc31)-c1csc(n1)CC(NC(=O)C1CC1C)C(=O)N1CCCC(N1)C(=O)OCC(C)(C)C2 please.
Ans: 65.4

---

test system: HOP-62 complex spheroids with HUVEC/MSC, viability; assay: Anticancer human tumor HOP-62 cell line growth inhibition [RAS]; settings: second compound 0.3 µM; first compound 0.316 µM; stronger effect = lower value;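 note: spheroids exposed to agents for seven days before readout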;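 for viability, T/C: 100% = DMSO vehicle control viability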
measure: viability, T/C (%)
Quick reminder: number only, in %, skip the unit.

Would you please look over these solved cases?
CC(C)NCC(C(=O)N1CCN(c2ncnc3c2C(C)CC3O)CC1)c1ccc(Cl)cc1 (stereo not drawn) + CCn1c(-c2cccnc2C(C)OC)c2c3cc(ccc31)N1CCOC(CC(NC(=O)C(C(C)C)N(C)C(=O)C3(F)CCN(C(=O)C#CC(C)(C)N(C)C)CC3)C(=O)N3CCCC(N3)C(=O)OCC(C)(C)C2)C1 ... 59.3
C[C@@H](NC(=O)c1ncnc(N)c1Cl)c1ncc(C(=O)Nc2cc(C(F)(F)F)c(Cl)cn2)s1 + CCn1c(-c2cc(N3CCN(C)CC3)cnc2C(C)OC)c2c3cc(ccc31)-c1csc(n1)CC(NC(=O)C1CC1C)C(=O)N1CCCC(N1)C(=O)OCC(C)(C)C2 ... 43.9

# context switch: different compound, same viability, T/C
Q: Identify the reported viability, T/C for the following entry. C=CC(=O)Nc1cc(Nc2nccc(-c3cn(C)c4ccccc34)n2)c(OC)cc1N(C)CCN(C)C + CCn1c(-c2cc(N3CCN(C)CC3)cnc2C(C)OC)c2c3cc(ccc31)-c1csc(n1)CC(NC(=O)C1CC1C)C(=O)N1CCCC(N1)C(=O)OCC(C)(C)C2
Ans: 22.9

---

tested on: HOP-62 complex spheroids with HUVEC/MSC, viability; test: Anticancer human tumor HOP-62 cell line growth inhibition [RAS]; settings: second compound 0.03 µM; first compound 10 µM; stronger effect = lower value;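 note: spheroids exposed to agents for seven days before readout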;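 for viability, T/C: 100% = DMSO vehicle control viability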
measure: viability, T/C (%)
Quick reminder: number only, in %, skip the unit.

CC1(O)CCCC1n1c(=O)c(C(F)F)cc2cnc(NC3CCN(S(C)(=O)=O)CC3)nc21 (stereo not given) + CCn1c(-c2cc(N3CCN(C)CC3)cnc2C(C)OC)c2c3cc(ccc31)-c1csc(n1)CC(NC(=O)C1CC1C)C(=O)N1CCCC(N1)C(=O)OCC(C)(C)C2 ... 2.84
Cc1nc(N2CCC3(CC2)COC(C)C3N)c(CO)nc1Sc1ccnc(N)c1Cl (stereo not given) + CCn1c(-c2cccnc2C(C)OC)c2c3cc(ccc31)N1CCOC(CC(NC(=O)C(C(C)C)N(C)C(=O)C3(F)CCN(C(=O)C#CC(C)(C)N(C)C)CC3)C(=O)N3CCCC(N3)C(=O)OCC(C)(C)C2)C1 ... 20.9
CC(C)NCC(C(=O)N1CCN(c2ncnc3c2C(C)CC3O)CC1)c1ccc(Cl)cc1 (stereo not given) + CCn1c(-c2cc(N3CCN(C)CC3)cnc2C(C)OC)c2c3cc(ccc31)-c1csc(n1)CC(NC(=O)C1CC1C)C(=O)N1CCCC(N1)C(=O)OCC(C)(C)C2 ... 15.3
Cc1nc(N2CCC3(CC2)COC(C)C3N)c(CO)nc1Sc1ccnc(N)c1Cl (stereo not given) + CCn1c(-c2cc(N3CCN(C)CC3)cnc2C(C)OC)c2c3cc(ccc31)-c1csc(n1)CC(NC(=O)C1CC1C)C(=O)N1CCCC(N1)C(=O)OCC(C)(C)C2 ... 20.9

# context switch: different compound, same viability, T/C
Q: Identify the reported viability, T/C for the following entry. NC1c2ccccc2OC12CCN(c1cnc3c(N4CCCc5ncccc54)n[nH]c3n1)CC2 (stereo not given) + CCn1c(-c2cccnc2C(C)OC)c2c3cc(ccc31)N1CCOC(CC(NC(=O)C(C(C)C)N(C)C(=O)C3(F)CCN(C(=O)C#CC(C)(C)N(C)C)CC3)C(=O)N3CCCC(N3)C(=O)OCC(C)(C)C2)C1
Ans: 14.6

Reference source: PubChem BioAssay AID2060892
